Values compiled from patent US6103709A.

molecular target: nuclear receptor for 1α,25(OH)2 D3 [VDRnuc] (Gallus gallus); construct: VDRnuc receptor preparation from chick intestine mucosa; from tissue; host or cells: chick intestinal mucosa; assay: Relative Competitive Index (steroid competition) assay, nuclear receptor VDRnuc; type: binding, chick; parameters: key: % relative to 1α,25(OH)2D3 binding (RCI = 100%); conditions: RCI of 1α,25(OH)2 D3 = 100
Sequence (O42392 whole entry): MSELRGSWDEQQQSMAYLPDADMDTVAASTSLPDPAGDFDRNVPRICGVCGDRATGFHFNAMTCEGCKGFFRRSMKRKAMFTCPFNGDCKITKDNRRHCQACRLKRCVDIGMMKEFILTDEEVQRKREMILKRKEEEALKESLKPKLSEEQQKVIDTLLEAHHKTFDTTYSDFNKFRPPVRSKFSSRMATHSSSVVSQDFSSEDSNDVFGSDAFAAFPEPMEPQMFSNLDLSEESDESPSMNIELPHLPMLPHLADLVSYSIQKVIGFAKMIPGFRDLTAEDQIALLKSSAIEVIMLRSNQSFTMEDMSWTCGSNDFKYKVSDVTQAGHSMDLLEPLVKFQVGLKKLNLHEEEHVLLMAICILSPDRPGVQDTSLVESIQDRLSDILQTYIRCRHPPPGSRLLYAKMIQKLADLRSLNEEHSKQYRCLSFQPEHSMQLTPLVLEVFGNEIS
measurement-type: Nuclear 1α,25-D Receptor (RCI)

C=C1/C(=C\C=C2/CCC[C@]3(C)[C@@H]([C@H](C)C#Cc4cccc(C(C)(C)O)c4)CC[C@@H]23)C[C@@H](O)C[C@@H]1O	1
C=C1CC[C@H](O)C/C1=C/C=C1\CCC[C@]2(C)[C@@H]([C@H](C)Cc3cccc(O)c3)CC[C@@H]12	0.001
C=C1/C(=C\C=C2/CCC[C@]3(CO)[C@@H]([C@H](C)CCCC(C)(C)O)CC[C@@H]23)C[C@@H](O)C[C@@H]1O	25
C[C@H](CCCC(C)(C)O)[C@H]1CC[C@H]2C3=CC=C4C[C@@H](O)C[C@H](O)[C@@]4(C)[C@@H]3CC[C@]12C	1.8
C[C@H](CCCC(C)(C)O)[C@H]1CC[C@H]2C3=CC=C4C[C@@H](O)C[C@H](O)[C@]4(C)[C@@H]3CC[C@]12C	0.3

a: C=C1/C(=C\C=C2/CCC[C@]3(C)[C@@H]([C@H](C)C=C=CC(C)(C)O)CC[C@@H]23)C[C@@H](O)C[C@@H]1O [HR]
b: C=C1/C(=C\C=C2/CCC[C@]3(C)[C@@H]([C@H](C)C=C=CC(C)(C)O)CC[C@@H]23)C[C@@H](O)C[C@@H]1O [HQ]
a or b : whose Nuclear 1α,25-D Receptor (RCI) is greater? I would appreciate it if you answered with the label of your choice.
a
(a: 52, b: 21)
